System: HBV DNA replication
Test: In vitro anti-HBV: inhibition of HBV DNA replication in 2.2.15 cells (dot blot)
Format: cell-based, hepatitis B virus
Details: Hepatitis B virus, 192 h, day 8, dot blot
Method: Cell control wells were simultaneously set up. […] IC50 and SI were calculated, respectively.
Where a SMILES comes first, the peptide text is derived from it. [ ]: non-standard residue; d: D form. The star is where a group is joined. 4Abz = Nc1ccc(C(=O)O)cc1; Propionyl = CCC(=O)*; Bz = O=C(c1ccccc1)*
Lab note: anything with IC50 below 10 µg/mL is marked YES; values at 10 µg/mL or higher are marked NO.

Below, 4 molecules whose answers are already recorded.
{"MOLECULE": "COC(=O)[C@H](Cc1ccc(O)cc1)NC(=O)[C@H](Cc1ccccc1)NC(=O)c1ccccc1 [Example 04] (Bz-Phe-Tyr-OMe)", "ASSIGNED CLASS": "NO"}
{"MOLECULE": "Cc1cccc(C(=O)N[C@@H](Cc2ccccc2)C(=O)N[C@H](CO)Cc2ccccc2)c1", "ASSIGNED CLASS": "NO"}
{"MOLECULE": "COc1ccc(C[C@H](NC(=O)[C@H](Cc2ccccc2)NC(=O)c2ccccc2)C(=O)[O-])cc1.[Na+] [Example 79] (Bz-Phe-Tyr(Me)-OH)", "ASSIGNED CLASS": "YES"}
{"MOLECULE": "CCC(=O)Nc1ccc(C(=O)N[C@@H](Cc2ccccc2)C(=O)N[C@@H](Cc2ccccc2)C(=O)OC)cc1 [Example 37] ({Propionyl-4Abz}-Phe-Phe-OMe)", "ASSIGNED CLASS": "YES"}

In the record for COC(=O)[C@H](Cc1ccc(O)cc1)NC(=O)[C@H](Cc1ccccc1)NC(=O)c1ccc(NC(C)=O)cc1 [Example 36] (Ac-[4Abz]-Phe-Tyr-OMe) , is IC50 less than 10 µg/mL?
YES

is_below(IC50, 10 µg/mL) for "O=C(N[C@@H](Cc1ccc(O)cc1)C(=O)N[C@H](CO)Cc1ccccc1)c1ccc(Cl)cc1" ?
NO

====

Where a SMILES comes first, the peptide text is derived from it. [ ]: non-standard residue; d: D form. The star is where a group is joined. Phe(4-NH2) = Nc1ccc(C[C@H](N)C(=O)O)cc1; 4Abz = Nc1ccc(C(=O)O)cc1; Propionyl = CCC(=O)*; Bz = O=C(c1ccccc1)*
RECORDED METRIC: melting point

{"MOLECULE": "COC(=O)[C@H](Cc1ccc(NC(C)=O)cc1)NC(=O)[C@H](Cc1ccccc1)NC(=O)c1ccccc1 [Example 59] (Bz-Phe-[Phe(4-NH2)](Ac)-OMe)", "melting point": "228 to 229.5 °C"}
{"MOLECULE": "O=C(N[C@H](CO)Cc1ccccc1)[C@H](Cc1ccc(O)cc1)NCc1ccncc1 [Example 47]", "melting point": "210 to 212 °C"}
{"MOLECULE": "CCC(=O)Nc1ccc(C[C@H](NC(=O)[C@H](Cc2ccccc2)NC(=O)c2ccccc2)C(=O)OC)cc1 [Example 64] (Bz-Phe-[Phe(4-NH2)](Propionyl)-OMe)", "melting point": "244.5 to 246 °C"}
{"MOLECULE": "COC(=O)[C@H](Cc1ccc(O)cc1)NC(=O)[C@H](Cc1ccccc1)NC(=O)c1ccc(NC(C)=O)cc1 [Example 36] (Ac-[4Abz]-Phe-Tyr-OMe)", "melting point": "215.5 to 217 °C"}

Quick check: melting point of "COC(=O)[C@H](Cc1ccccc1)NC(=O)[C@H](Cc1ccc(O)cc1)NC(=O)c1ccc(C)cc1" ?
190 to 192.5 °C

Requested field: melting point. Item: COC(=O)[C@H](Cc1ccc(O)cc1)NC(=O)[C@H](Cc1ccccc1)NC(=O)c1ccccc1Cl [Example 11]
164.5 to 167 °C
